The reported numbers originate from paper PMC8919051.

# system: α-amylase (EC 3.2.1.1)
# method description: α-amylase activity kit, colorimetric at […] nm
# Format: biochemical
pIC50: −log10 of the molar value.

# compound, system, pIC50
measured = [
    ("O=C(/C=C/c1ccc(O)c(O)c1)O[C@@H]1C[C@@](O)(C(=O)O)C[C@@H](O)[C@@H]1O [neochlorogenic acid]", "α-amylase (EC 3.2.1.1)", 3.64),
    ("COc1cc(C(=O)O)ccc1O [vanillic acid]", "α-amylase (EC 3.2.1.1)", 3.48),
]
